Just for reference, patent US20230159445A1 is where these values come from.

- Tested on: glutathione (GSH)
- run.description: Reactivity Profiling with Glutathione (GSH), half-life by HPLC
- test.conditions: 5 mM glutathione (GSH) in IMDM with 10% FBS
readout: half-life at 25 μM

Input line: Return reported half-life at 25 μM. Input compound: C[C@@H](CC(=O)N(Cc1cc(C2CC2)cc(C(C)(C)C)c1)c1ccc(C(=O)O)c(O)c1)N(Cc1ccc(Cl)cc1)S(=O)(=O)c1c(F)c(F)c(F)c(F)c1F [Compound 1040]
Output line: 4.12 to 9.23 h

Input line: Return reported half-life at 25 μM. Input compound: O=C(O)c1ccc(N(Cc2ncccn2)C(=O)CN(Cc2ccccc2C(F)(F)F)S(=O)(=O)c2c(F)c(F)c(F)c(F)c2F)c(OC2CC2)c1 [Compound 1128]
Output line: 0.00167 to 2.37 h

Input line: Return reported half-life at 25 μM. Input compound: COc1cc(C(=O)O)ccc1N(Cc1cc(C2CC2)cc(C2CC2)c1)C(=O)CN(Cc1ncccc1C(F)(F)F)S(=O)(=O)c1c(F)c(F)c(F)c(F)c1F [Compound 1162]
Output line: 2.37 to 4.12 h
